# SYSTEM NAME: pY705-STAT3 in PBMC (Homo sapiens, UniProt P40763)
# Construct: Cryopreserved Peripheral Blood Mononuclear Cells (PBMC) are from AllCells; host or cells: cryopreserved PBMC
# Sequence (P40763 whole entry): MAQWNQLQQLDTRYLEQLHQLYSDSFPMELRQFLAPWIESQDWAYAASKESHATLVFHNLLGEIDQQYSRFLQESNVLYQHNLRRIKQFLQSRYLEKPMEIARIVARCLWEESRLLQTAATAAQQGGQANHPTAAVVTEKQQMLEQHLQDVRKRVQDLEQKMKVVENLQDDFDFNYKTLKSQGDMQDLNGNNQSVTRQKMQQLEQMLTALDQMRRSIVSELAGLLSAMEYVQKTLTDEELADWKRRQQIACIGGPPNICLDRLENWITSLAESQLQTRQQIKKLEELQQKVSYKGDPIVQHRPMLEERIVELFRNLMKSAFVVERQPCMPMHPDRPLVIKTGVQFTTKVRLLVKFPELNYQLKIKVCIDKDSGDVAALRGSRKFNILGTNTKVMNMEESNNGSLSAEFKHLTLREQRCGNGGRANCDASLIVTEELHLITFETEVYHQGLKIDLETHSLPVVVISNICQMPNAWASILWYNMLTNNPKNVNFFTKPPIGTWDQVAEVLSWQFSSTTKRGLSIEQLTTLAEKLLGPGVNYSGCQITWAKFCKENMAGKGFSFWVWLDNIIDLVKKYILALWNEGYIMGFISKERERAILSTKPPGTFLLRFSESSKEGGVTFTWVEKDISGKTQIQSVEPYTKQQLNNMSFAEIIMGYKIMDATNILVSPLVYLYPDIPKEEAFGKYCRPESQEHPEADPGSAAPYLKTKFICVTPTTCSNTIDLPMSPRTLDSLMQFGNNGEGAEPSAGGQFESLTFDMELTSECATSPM
# EXPERIMENT: MSD-pSTAT-PBMC Assay (pSTAT3, IL-6 stimulated)
# Format: cell-based
# CONDITION LABEL: PBMC, compound 3 hrs, then 10 ng/mL IL-6 for 10 min; Table 115; read-out: STAT3

{"columns": ["MOLECULE", "IC50"],
 "data": [
  ["CC(C)CC(=O)SCCOP(=O)(OCCSC(=O)CC(C)C)C(F)(F)c1ccc2sc(C(=O)N[C@H]3CCCC[C@H]4CC[C@@H](C(=O)N5CC(c6ccccc6)CC56CC6)N4C3=O)cc2c1 (stereo partly drawn) [Compound 1082]", "> 3000 nM"],
  ["CC(C)COC(=O)[C@@H](NP(=O)(Cc1ccc2sc(C(=O)N[C@H]3CCC[C@H]4CC[C@@H](C(=O)N5CC(c6cccnc6)C5)N4C3=O)cc2c1)Oc1ccccc1)C(C)C (stereo partly drawn) [Compound 948]", "1000 to 3000 nM"],
  ["CCCOC(=O)[C@H](C)N[P@](=O)(Oc1ccccc1)[C@@H](F)c1ccc2sc(C(=O)N[C@H]3C[C@@H](C)C[C@H]4CC[C@@H](C(=O)N5CC(c6cnccc6OC)C5)N4C3=O)cc2c1 (single isomer, unassigned) [Compound 1058]", "< 100 nM"],
  ["CCCOC(=O)[C@H](C)NP(=O)(Cc1ccc2sc(C(=O)N[C@H]3CCC[C@H]4CC[C@@H](C(=O)N5CC(c6cnccc6N6CCOCC6)C5)N4C3=O)cc2c1)Oc1ccccc1 (stereo partly drawn) [Compound 1038]", "< 100 nM"],
  ["CCCOC(=O)[C@H](C)NP(=O)(Oc1ccccc1)C(F)c1ccc2sc(C(=O)N[C@H]3CCC[C@H]4CC[C@@H](C(=O)N5CC(c6cn(C)ccc6=O)C5)N4C3=O)cc2c1 (stereo partly drawn) [Compound 985]", "> 3000 nM"],
  ["CCCC(=O)SCCOP(=O)(OCCSC(=O)CCC)C(F)(F)c1ccc2sc(C(=O)N[C@H]3CCC[C@H]4CC[C@@H](C(=O)N5CC(c6nncn6C)C5)N4C3=O)cc2c1 [Compound 964]", "100 to 1000 nM"],
  ["CCCOC(=O)C1(NP(=O)(Cc2ccc3sc(C(=O)N[C@H]4CCC[C@H]5CC[C@@H](C(=O)N6CC(c7cccnc7)C6)N5C4=O)cc3c2)Oc2ccccc2)CC1 (stereo partly drawn) [Compound 434]", "100 to 1000 nM"],
  ["CCCOC(=O)[C@H](C)N[P@@](=O)(Oc1ccccc1)[C@@H](F)c1ccc2sc(C(=O)N[C@H]3CCC[C@H]4CC[C@@H](C(=O)N5CC(c6cccnc6)C5)N4C3=O)cc2c1 [Compound 447]", "< 100 nM"],
  ["CCCOC(=O)[C@H](C)NP(=O)(Oc1ccccc1)[C@@H](F)c1ccc2sc(C(=O)N[C@H]3CCCC[C@H]4CC[C@@H](C(=O)N5C[C@H](c6ccccc6)[C@@H](C#N)C56CC6)N4C3=O)cc2c1 (stereo partly drawn) [Compound 381]", "> 3000 nM"],
  ["CCCOC(=O)[C@H](C)NP(=O)(Cc1ccc2sc(C(=O)N[C@H]3CCC[C@H]4CC[C@@H](C(=O)N5CC(c6cnccc6C6CC6)C5)N4C3=O)cc2c1)Oc1ccccc1 (stereo partly drawn) [Compound 267]", "< 100 nM"],
  ["CCCOC(=O)[C@H](C)NP(=O)(Cc1ccc2sc(C(=O)N[C@H]3CCC[C@H]4CC[C@@H](C(=O)N5CC(c6cnccc6OC(F)F)C5)N4C3=O)cc2c1)Oc1ccccc1 (stereo partly drawn) [Compound 996]", "100 to 1000 nM"],
  ["CC(C)(C)C(=O)SCCOP(=O)(OCCSC(=O)C(C)(C)C)C(F)(F)c1ccc2sc(C(=O)N[C@H]3CCCC[C@H]4CC[C@@H](C(=O)NCc5cnc6[nH]cnc6c5)N4C3=O)cc2c1 [Compound 1005]", "< 100 nM"],
  ["CC(C)CC(=O)SCCOP(=O)(OCOC(=O)O[C@H]1CCOC1)C(F)(F)c1ccc2sc(C(=O)N[C@H]3CCCC[C@H]4CC[C@@H](C(=O)N5C[C@H](c6cc[nH]c(=O)c6)[C@@H](C#N)C5)N4C3=O)cc2c1 (single isomer, unassigned) [Compound 1097]", "1000 to 3000 nM"],
  ["CC(C)C(=O)SCCOP(=O)(OCCSC(=O)C(C)C)C(F)(F)c1ccc2sc(C(=O)N[C@H]3CCC[C@H]4CC[C@@H](C(=O)N5CC(c6cccnc6)C5)N4C3=O)cc2c1 [Compound 1009]", "< 100 nM"],
  ["CCCOC(=O)[C@H](C)NP(=O)(Oc1ccccc1)[C@H](F)c1ccc2sc(C(=O)N[C@H]3CCC[C@H]4CC[C@@H](C(=O)N5CC(c6cncnc6N6CCOCC6)C5)N4C3=O)cc2c1 (stereo partly drawn) [Compound 1067]", "100 to 1000 nM"],
  ["CCCOC(=O)[C@H](C)NP(=O)(Oc1ccccc1)C(F)c1ccc2sc(C(=O)N[C@H]3CCC[C@H]4CC[C@@H](C(=O)N5CC(c6cccnc6)C5)N4C3=O)cc2c1 (stereo partly drawn) [Compound 415]", "< 100 nM"],
  ["CCCOC(=O)[C@H](C)NP(=O)(Oc1ccccc1)[C@H](F)c1ccc2sc(C(=O)N[C@H]3CCC[C@H]4CC[C@@H](C(=O)N5CC(c6cnccc6N6CCC6)C5)N4C3=O)cc2c1 (stereo partly drawn) [Compound 1024]", "100 to 1000 nM"],
  ["CCCOC(=O)[C@H](C)NP(=O)(Oc1ccccc1)[C@H](F)c1ccc2sc(C(=O)N[C@H]3CCC[C@H]4CC[C@@H](C(=O)N5CC(c6cncnc6N6CCC6)C5)N4C3=O)cc2c1 (stereo partly drawn) [Compound 1076]", "< 100 nM"]
]}

Values from patent US20250215029A1
